experiment: gradient 5% acetonitrile 3 min, to 50% in 2 min, to 85% in 15 min, held 3 min, 100 µL/min; settings: column: Zorbax Extend-C18 2.1 x 50 mm; eluents: water / acetonitrile, 0.1% formic acid
QUANTITY_KIND: RP-LC retention time (s)

>>> print(df.to_string())
                  compound_structure_string  assay_result
0  O=C(Nc1ccccc1OC(F)F)c1ccc(S(=O)(=O)N2CCOCC2)cc1           841

I = CCOc1ccccc1C(=O)NCCc1csc(-c2cccnc2)n1
II = Cc1cc(NC(=O)Cn2nc(N3CCCC3)c3ccccc3c2=O)ccc1Br
Query: Of the pair I and II , name the member with the lesser recorded RP-LC retention time. Kindly state the label of the option you pick.
Response: I
(I: 668 s, II: 1060 s)

---

experiment: gradient 5% acetonitrile 3 min, to 50% in 2 min, to 85% in 15 min, held 3 min, 100 µL/min; settings: column: Zorbax Extend-C18 2.1 x 50 mm; eluents: water / acetonitrile, 0.1% formic acid
QUANTITY_KIND: RP-LC retention time (s)

>>> df
                                   molecule  unit_text  assay_result
0           CC(C)c1ncc(CO)n1Cc1c(Cl)cccc1Cl          s           663
1  O=C(C1CCCO1)N1CCC(OCc2nc(-c3cccnc3)no2)CC1 (stereo not given)          s           636

A = O=C(c1cc(-c2cccnc2)n[nH]1)N1CCN(C(=O)C2CCCC2)CC1
B = COc1ccccc1-c1noc(Cn2ccn3nc(-c4cccc5ccccc45)cc3c2=O)n1
Query: Which record shows the lower RP-LC retention time: the first, A , or the second, B ? // output: label of the selected item
Response: A
(A: 594 s, B: 1070 s)

---

experiment: gradient 5% acetonitrile 3 min, to 50% in 2 min, to 85% in 15 min, held 3 min, 100 µL/min; conditions: column: Zorbax Extend-C18 2.1 x 50 mm; eluents: water / acetonitrile, 0.1% formic acid
QUANTITY_KIND: RP-LC retention time (s)

In [3]: df
Out[3]:
                  compound_structure_string  unit_text  assay_result
0  CCCn1cc(CCNS(=O)(=O)c2ccc(F)cc2F)c2cccnc21          s           848
1  Cc1ccc(-c2cn3c(CC(=O)NC4CCCCC4)csc3n2)cc1C          s           829
2  O=C(NCCCc1ccccc1)C(=O)NCc1n[nH]c(=O)c2ccccc12          s           746
3  COc1cc(NC(=O)C2CCN(S(=O)(=O)c3cn(C(C)C)cn3)CC2)cc(OC)c1OC          s           707
4  COc1cc(-c2noc(Cc3nnc(-c4ccc(C)c(F)c4)o3)n2)cc(OC)c1OC          s           996

---

experiment: gradient 5% acetonitrile 3 min, to 50% in 2 min, to 85% in 15 min, held 3 min, 100 µL/min; settings: column: Zorbax Extend-C18 2.1 x 50 mm; eluents: water / acetonitrile, 0.1% formic acid
QUANTITY_KIND: RP-LC retention time (s)

>>> df
                                    compound  unit_text  assay_result
 0  CCOc1ccc(-n2c(N3CCN(CC)CC3)nc3cc(C(=O)OC)ccc3c2=O)cc1          s           683
 1  Cc1ccc(-c2cc3c(=O)n(CC(O)c4ccc(C)c(C)c4)ccn3n2)c(C)c1 (stereo unspecified)          s          1080
 2  CCOC(=O)c1c(C)[nH]c(CCC(=O)NCCN2CCCCC2C)c1C (stereo unspecified)          s           618
 3  CCc1nc2c(c(=O)n1CC(=O)NCCC1=CCCCC1)CN(Cc1ccccc1)CC2          s           696
 4                CN(Cc1cccs1)C(=O)NC(C)(C)C          s           817
 5       CNc1nc(N2CCCCCC2)nc(-n2cnc(SC)n2)n1          s           685
 6  COc1ccccc1CNC(=O)Cn1ccc2ccc(-c3nnc(C)o3)cc21          s           763
 7  CCC1Oc2ccc(S(=O)(=O)N3CCC(C(=O)Nc4ccc(F)cc4)CC3)cc2NC1=O (stereo unspecified)          s           866
 8            CN(Cc1cc(Br)cc(Br)c1N)C1CCCCC1          s           832
 9  Cn1cc(-c2ccc3nnc(Sc4ccc5ncccc5c4)n3n2)cn1          s           661
10  c1coc(CN2CC(Oc3ccc(-c4noc(C5CC5)n4)cc3)C2)c1          s           684
11  O=C(Nc1ccc2c(c1)OCO2)c1coc(NC(=O)c2ccco2)n1          s           651
12  COc1cc(NC(=O)N2CCCC2c2nncn2C2CCCC2)cc(OC)c1 (stereo unspecified)          s           677
13         O=C(c1cc(=O)[nH]c2ccccc12)N1CCCC1          s           598
14       COc1ccc(NC(=O)c2cn3c(n2)CSCC3)cc1Cl          s           737
15           CC(C)NCc1ccc(-c2cc(Cl)ccc2Cl)o1          s           709
16  CCN1C(=O)C2CCC(=O)N2c2ccc(C(=O)NCc3ccco3)cc21 (stereo unspecified)          s           674
17      COC(=O)c1cccc(C(=O)Nc2ccc(Cl)cc2F)n1          s           996
18  CC1CC(C)CN(CCCNC(=O)CCCn2c(=O)c3cccn3c3ccccc32)C1 (stereo unspecified)          s           659
19  CC(C)Cn1c(=O)c2sccc2n2c(CCC(=O)NCc3cc(F)ccc3F)nnc12          s           622
20  O=C(N[C@H]1C[C@@H]2C[C@H]1CN2C(=O)c1ccccc1Cl)c1ccccc1          s           757

---

experiment: gradient 5% acetonitrile 3 min, to 50% in 2 min, to 85% in 15 min, held 3 min, 100 µL/min; details: column: Zorbax Extend-C18 2.1 x 50 mm; eluents: water / acetonitrile, 0.1% formic acid
QUANTITY_KIND: RP-LC retention time (s)

>>> df
                                   molecule  unit_text  assay_result
0  O=C(c1cn(-c2cc(N3CCCCC3)ncn2)cn1)N1CCN(c2ccccc2)CC1          s           944
1  Cc1ccc(NC(=O)Cn2nc3nc(N4CCSCC4)ccn3c2=O)cc1C          s           754
2  Cc1noc(C2CN(C(=O)Nc3ccc(Cl)cc3C)CC23CCOCC3)n1 (centres undefined)          s           792
3  Cc1ccc2c(=O)c(C(=O)c3ccc(Cl)cc3)cn(CC(=O)NCC3CCCO3)c2n1 (centres undefined)          s           745
4  Cc1ccc(CNC(=O)c2sc(Nc3ccc(F)cn3)nc2C)cc1          s           859

I = Cn1nc(-c2nnc(-c3ccccc3)o2)c2c1CCN(S(=O)(=O)c1ccc(Cl)cc1)C2
II = O=S(=O)(Cc1ccccc1)N1CCC(OC2CCN(Cc3cccnc3)CC2)CC1
Query: Select one. Lower RP-LC retention time: I or II Reply briefly: the label of your chosen item.
Response: II

---

experiment: gradient 5% acetonitrile 3 min, to 50% in 2 min, to 85% in 15 min, held 3 min, 100 µL/min; details: column: Zorbax Extend-C18 2.1 x 50 mm; eluents: water / acetonitrile, 0.1% formic acid
QUANTITY_KIND: RP-LC retention time (s)

Use these answered entries as a reference point.
>>> print(df.to_string())
                                   compound  unit_text  assay_result
0  COc1ccc(OC)c(C(C)NC(=O)C2CCCN(c3nccnc3Sc3ccc(C)cc3)C2)c1 (stereo not given)          s          1150
1  CCCCn1cc(S(=O)(=O)NCc2ccc(F)cc2Cl)c2cccnc21          s          1030
2     CCOC(=O)c1cc([N+](=O)[O-])sc1NC(=O)CC          s           915
3  Cc1ccc2cc(CCC(=O)NCCc3cccnc3)c(=O)[nH]c2c1          s           586

I = O=C(NCc1cccc(C(F)(F)F)c1)c1cn2nc(Cl)ccc2n1
II = COc1cccc(S(=O)(=O)Nc2ccc(C(=O)Nc3ccncc3)cc2)c1
Query: Endpoint returns whichever of I and II has the numerically higher RP-LC retention time. I would appreciate it if you answered with the label of your choice.
Response: I

I = Cn1cc(-c2nc(C(=O)Nc3ccc(F)cc3F)cs2)c2cccnc21
II = COc1ccc(Cl)c2c(=O)c3c([nH]c12)CCN(CC(=O)Nc1ccccc1Cl)C3
Query: // compare: I vs II , metric RP-LC retention time, want the smaller Provide the label of your selected option as the answer.
Response: II
(II: 638 s, I: 1070 s)

P = CC1CCN(c2nccnc2Oc2ccc(C(=O)Nc3ccc4c(c3)OCCO4)cc2)CC1
Q = Cc1cc(F)ccc1NS(=O)(=O)c1c[nH]c2ncccc12
Query: Between P and Q , which one shows the smaller RP-LC retention time number? The response must carry the label of the picked entry.
Response: Q

A = CC1(C)CC(=O)c2cn(-c3ccc(Cl)cc3)c(=O)c(C(=O)N3CCOCC3)c2C1
B = CSc1ccc(CNC(=O)c2c(C)oc3ccn(Cc4cccc(F)c4)c(=O)c23)cc1
Query: Lab log: flag the item ( A or B ) with the smaller RP-LC retention time figure. Choose, then provide that item's label.
Response: A
(A: 757 s, B: 1110 s)
